Measured remaining at 0.25 h, 200 μM by item
assay: in vitro; details: human, blood plasma (20% v/v), pH 7.4
No end group written: not given here.
valueType: remaining at 0.25 h, 200 μM (%)

* LKLLKKLLKKLLKLL-NH2 [Amp1L] | 71
* GIGKFLKKAKKFGKAFVKILKK-NH2 [MSI-78] | 91

====

Measured remaining at 0.5 h, 200 μM by item
assay: in vitro; conditions: human, blood plasma (20% v/v), pH 7.4
No end group written: not given here.
valueType: remaining at 0.5 h, 200 μM (%)

- LKLLKKLLKKLLKLL-NH2 [Amp1L]: 65
- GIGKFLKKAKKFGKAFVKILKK-NH2 [MSI-78]: 81

====

experiment: in vitro; settings: human, blood plasma (20% v/v), pH 7.4
Starred links: 1 amine or outer side, 2 acyl side, 3 side chain; linkers in the order of their positions; H or OH if unused. Positions of bridges follow the written chain, without caps; N, C: chain ends. Non-standard residues stand in square brackets, D forms with d. Residues, ends and D or L forms follow the SMILES beside them. Chains are numbered I, II in the order given. εLys = N[C@@H](CCCCN[*:1])C(=O)[*:2]
valueType: remaining at 0.25 h, 200 μM (%)

* CC(C)C[C@H](NC(=O)[C@H](CC(C)C)NC(=O)[C@@H](N)CCCCNC(=O)[C@H](CC(C)C)NC(=O)[C@H](CC(C)C)NC(=O)[C@H](CCCCN)NC(=O)[C@@H](N)CCCCNC(=O)[C@H](CC(C)C)NC(=O)[C@H](CC(C)C)NC(=O)[C@H](CCCCN)NC(=O)[C@@H](N)CCCCNC(=O)[C@H](CC(C)C)NC(=O)[C@H](CC(C)C)NC(=O)[C@H](CCCCN)NC(=O)[C@@H](N)CC(C)C)C(N)=O [Amp1EP] (I: H-LKLL[εLys]KLL / II: H-KKLL[εLys]LL-NH2; amide I:C-II:1) | 85

====

assay: in vitro; conditions: human, blood plasma (20% v/v), pH 7.4
Starred links: 1 amine or outer side, 2 acyl side, 3 side chain; linkers in the order of their positions; H or OH if unused. Positions of bridges follow the written chain, without caps; N, C: chain ends. Non-standard residues stand in square brackets, D forms with d. Residues, ends and D or L forms follow the SMILES beside them. Chains are numbered I, II in the order given. εLys = N[C@@H](CCCCN[*:1])C(=O)[*:2]
valueType: remaining at 1 h, 200 μM (%)

• CC(C)C[C@H](NC(=O)[C@H](CC(C)C)NC(=O)[C@@H](N)CCCCNC(=O)[C@H](CC(C)C)NC(=O)[C@H](CC(C)C)NC(=O)[C@H](CCCCN)NC(=O)[C@@H](N)CCCCNC(=O)[C@H](CC(C)C)NC(=O)[C@H](CC(C)C)NC(=O)[C@H](CCCCN)NC(=O)[C@@H](N)CCCCNC(=O)[C@H](CC(C)C)NC(=O)[C@H](CC(C)C)NC(=O)[C@H](CCCCN)NC(=O)[C@@H](N)CC(C)C)C(N)=O [Amp1EP] (I: H-LKLL[εLys]KLL / II: H-KKLL[εLys]LL-NH2; amide I:C-II:1) = 66

====

Assay: in vitro
Conditions: human, blood plasma (20% v/v), pH 7.4
Experimental: The stability of the peptides was assessed by incubating them in blood plasma (20% v/v) rich in proteases thrombin and plasmin for different time periods at 37 °C. The stability of peptides in human blood plasma was measured using a literature procedure.[13],[53] […] The column was eluted in 40 min using a linear gradient of 10–90% acetonitrile in water containing 0.1% trifluoroacetic acid (v/v) at a flow rate of 0.6 mL/min, and the absorbance was detected at 215 nm. […]
No end group written: not given here.
Measured remaining at 1 h, 200 μM by item
valueType: remaining at 1 h, 200 μM (%)

• LKLLKKLLKKLLKLL-NH2 [Amp1L] = 62
• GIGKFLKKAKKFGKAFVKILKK-NH2 [MSI-78] = 81
